target: thermolysin (Bacillus thermoproteolyticus); conditions: after 2 hours; protease 10 μM; substrate 0.2 mM (G1-G3, L1-L3) or 0.1 mM (G4, L4); n.d. = no hydrolysis was detected; hydrolysate INH
Sequence (P00800 233-548): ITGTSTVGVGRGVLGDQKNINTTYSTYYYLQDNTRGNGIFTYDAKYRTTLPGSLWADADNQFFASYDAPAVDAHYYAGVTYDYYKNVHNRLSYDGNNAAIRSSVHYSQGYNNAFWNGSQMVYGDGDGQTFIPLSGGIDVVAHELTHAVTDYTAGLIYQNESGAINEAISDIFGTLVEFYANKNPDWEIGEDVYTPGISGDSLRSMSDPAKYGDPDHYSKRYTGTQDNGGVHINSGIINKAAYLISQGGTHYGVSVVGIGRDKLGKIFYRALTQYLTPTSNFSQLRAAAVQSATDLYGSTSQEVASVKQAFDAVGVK
Listed next: entries and their corresponding degree of hydrolysis by Thermolysin.
Note: unit % is implicit; provide only the numeric part.

Recorded results for 3 molecules are shown here.
CC(C)(C)OC(=O)NC(Cc1ccc(O)cc1)C(=O)NCC(=O)NNC(=O)c1ccncc1 (stereo not drawn) [Substrate G1, Boc-Tyr- Gly-INH] | 0.74
CC(C)(C)OC(=O)NC(Cc1ccc(O)c(-c2cc(CC(NC(=O)OC(C)(C)C)C(=O)NCC(=O)NNC(=O)c3ccncc3)ccc2O)c1)C(=O)NCC(=O)NNC(=O)c1ccncc1 (stereo not shown) [Substrate G4, DBDY-(Gly-INH)2] | 0.74
CC(C)(C)OC(=O)NC(Cc1c[nH]c2ccccc12)C(=O)NCC(=O)NNC(=O)c1ccncc1 (stereo not drawn) [Substrate G3, Boc-Trp-Gly-INH] | 0.74

Challenge: Look up degree of hydrolysis by Thermolysin for this molecule: CC(C)(C)OC(=O)NC(Cc1c[nH]c2ccccc12)C(=O)NC(CCCCN)C(=O)NNC(=O)c1ccncc1 (stereo not drawn) [Substrate L3, Boc-Trp-Lys-INH]
Response given: 4.04

* * *

Listed next: entries and their corresponding degree of hydrolysis by Pepsin.
Target: pepsin (Sus scrofa)
Construct: pepsin derived from pig gastric mucosa; purchased Sigma-Aldrich Chemical Co; host or cells: pig gastric mucosa
Sequence (P00791 60-385): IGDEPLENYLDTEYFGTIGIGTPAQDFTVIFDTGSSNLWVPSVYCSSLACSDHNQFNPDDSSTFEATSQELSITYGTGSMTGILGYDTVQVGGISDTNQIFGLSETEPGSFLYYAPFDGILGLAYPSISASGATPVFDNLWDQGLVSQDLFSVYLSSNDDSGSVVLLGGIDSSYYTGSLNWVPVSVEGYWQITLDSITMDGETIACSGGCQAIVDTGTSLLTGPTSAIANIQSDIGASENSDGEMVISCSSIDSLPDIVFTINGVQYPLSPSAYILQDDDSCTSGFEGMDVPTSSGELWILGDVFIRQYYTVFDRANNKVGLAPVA
Assay: Degree of hydrolysis by protease (Table 3)
Format: biochemical, pig
Conditions: after 2 hours; protease 10 μM; substrate 0.2 mM (G1-G3, L1-L3) or 0.1 mM (G4, L4); n.d. = no hydrolysis was detected; hydrolysate INH
Protocol: A hydrolysate was measured using a HPLC system.
Note: unit % is implicit; provide only the numeric part.

CC(C)(C)OC(=O)NC(Cc1c[nH]c2ccccc12)C(=O)NCC(=O)NNC(=O)c1ccncc1 (stereo not drawn) [Substrate G3, Boc-Trp-Gly-INH] | 3.21

Challenge: Look up degree of hydrolysis by Pepsin for this molecule: CC(C)(C)OC(=O)NC(Cc1ccccc1)C(=O)NCC(=O)NNC(=O)c1ccncc1 (stereo not drawn) [Substrate G2, Boc-Phe-Gly-INH]
Response given: 1.61

Challenge: Look up degree of hydrolysis by Pepsin for this molecule: CC(C)(C)OC(=O)NC(Cc1ccc(O)cc1)C(=O)NC(CCCCN)C(=O)NNC(=O)c1ccncc1 (stereo not drawn) [Substrate L1, Boc-Tyr-Lys-INH]
Response given: 0.74

* * *

target: pepsin (Sus scrofa); construct: pepsin derived from pig gastric mucosa; purchased Sigma-Aldrich Chemical Co; host or cells: pig gastric mucosa; experiment: Degree of hydrolysis by protease (Table 3); assay type: biochemical, pig; details: after 2 hours; protease 10 μM; substrate 0.2 mM (G1-G3, L1-L3) or 0.1 mM (G4, L4); n.d. = no hydrolysis was detected; hydrolysate INH
Listed next: entries and their corresponding degree of hydrolysis by Pepsin.
Note: unit % is implicit; provide only the numeric part.

Challenge: Any idea what degree of hydrolysis by Pepsin came out for CC(C)(C)OC(=O)NC(Cc1ccc(O)c(-c2cc(CC(NC(=O)OC(C)(C)C)C(=O)NCC(=O)NNC(=O)c3ccncc3)ccc2O)c1)C(=O)NCC(=O)NNC(=O)c1ccncc1 (stereo not drawn) [Substrate G4, DBDY-(Gly-INH)2] on pepsin (Sus scrofa)?
Response given: 2.98

Challenge: Any idea what degree of hydrolysis by Pepsin came out for CC(C)(C)OC(=O)NC(Cc1ccc(O)c(-c2cc(CC(NC(=O)OC(C)(C)C)C(=O)NC(CCCCN)C(=O)NNC(=O)c3ccncc3)ccc2O)c1)C(=O)NC(CCCCN)C(=O)NNC(=O)c1ccncc1 (stereo not drawn) [Substrate L4, DBDY-(Lys-INH)2] on pepsin (Sus scrofa)?
Response given: 1.04

Challenge: Any idea what degree of hydrolysis by Pepsin came out for CC(C)(C)OC(=O)NC(Cc1ccc(O)cc1)C(=O)NCC(=O)NNC(=O)c1ccncc1 (stereo not drawn) [Substrate G1, Boc-Tyr- Gly-INH] on pepsin (Sus scrofa)?
Response given: 2.34

* * *

target: chymotrypsin (Bos taurus, UniProt P00766); construct: chymotrypsin and trypsin derived from fetal bovine pancreas; purchased Sigma-Aldrich Chemical Co; host or cells: bovine pancreas; test: Degree of hydrolysis by protease (Table 3); type: biochemical, bovine; conditions: after 2 hours, protease 10 μM, substrate 0.2 mM (G1-G3, L1-L3) or 0.1 mM (G4, L4), n.d. = no hydrolysis was detected, hydrolysate Gly-INH (G), Lys-INH (L1-L3)
Marks after values point to notes of the source that are not given here.
Listed next: entries and their corresponding degree of hydrolysis by Chymotrypsin.

Recorded results for 5 compounds are shown here.
CC(C)(C)OC(=O)NC(Cc1c[nH]c2ccccc12)C(=O)NC(CCCCN)C(=O)NNC(=O)c1ccncc1 (stereo not drawn) [Substrate L3, Boc-Trp-Lys-INH] | 58.3 ± 1.2 ^e %
CC(C)(C)OC(=O)NC(Cc1ccc(O)cc1)C(=O)NC(CCCCN)C(=O)NNC(=O)c1ccncc1 (stereo not drawn) [Substrate L1, Boc-Tyr-Lys-INH] | 37.6 ± 5.2 ^e %
CC(C)(C)OC(=O)NC(Cc1ccccc1)C(=O)NC(CCCCN)C(=O)NNC(=O)c1ccncc1 (stereo not drawn) [Substrate L2, Boc-Phe-Lys-INH] | 53.2 ± 4.8 ^e %
CC(C)(C)OC(=O)NC(Cc1c[nH]c2ccccc12)C(=O)NCC(=O)NNC(=O)c1ccncc1 (stereo not drawn) [Substrate G3, Boc-Trp-Gly-INH] | 17.3 ± 5.5 ^d %
CC(C)(C)OC(=O)NC(Cc1ccc(O)c(-c2cc(CC(NC(=O)OC(C)(C)C)C(=O)NC(CCCCN)C(=O)NNC(=O)c3ccncc3)ccc2O)c1)C(=O)NC(CCCCN)C(=O)NNC(=O)c1ccncc1 (centres unmarked) [Substrate L4, DBDY-(Lys-INH)2] | 7.15 ± 0.47 ^c %

Challenge: Look up degree of hydrolysis by Chymotrypsin for this compound: CC(C)(C)OC(=O)NC(Cc1ccc(O)cc1)C(=O)NCC(=O)NNC(=O)c1ccncc1 (stereo not drawn) [Substrate G1, Boc-Tyr- Gly-INH]
Response given: 38.7 ± 2.9 ^d %

Challenge: Look up degree of hydrolysis by Chymotrypsin for this compound: CC(C)(C)OC(=O)NC(Cc1ccccc1)C(=O)NCC(=O)NNC(=O)c1ccncc1 (stereo not drawn) [Substrate G2, Boc-Phe-Gly-INH]
Response given: 28.6 ± 3.4 ^d %

* * *

Listed next: entries and their corresponding degree of hydrolysis by Papain.
molecular target: papain (Carica papaya); construct: papain and chymopapain derived from papaya latex; purchased Sigma-Aldrich Chemical Co; host or cells: papaya latex; assay: Degree of hydrolysis by protease (Table 3); type: biochemical, papaya latex; conditions: after 2 hours; protease 10 μM; substrate 0.2 mM (G1-G3, L1-L3) or 0.1 mM (G4, L4); hydrolysate INH
Sequence (P00784 134-345): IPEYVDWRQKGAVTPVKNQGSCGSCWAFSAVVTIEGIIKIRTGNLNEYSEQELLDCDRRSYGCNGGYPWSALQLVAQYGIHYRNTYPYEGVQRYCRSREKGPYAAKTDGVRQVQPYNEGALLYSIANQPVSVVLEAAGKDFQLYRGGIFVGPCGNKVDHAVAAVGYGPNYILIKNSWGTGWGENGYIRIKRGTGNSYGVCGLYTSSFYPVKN
Note: unit % is implicit; provide only the numeric part.

Recorded results for 2 compounds are shown here.
CC(C)(C)OC(=O)NC(Cc1c[nH]c2ccccc12)C(=O)NCC(=O)NNC(=O)c1ccncc1 (stereo not drawn) [Substrate G3, Boc-Trp-Gly-INH] | 58.8
CC(C)(C)OC(=O)NC(Cc1ccc(O)c(-c2cc(CC(NC(=O)OC(C)(C)C)C(=O)NC(CCCCN)C(=O)NNC(=O)c3ccncc3)ccc2O)c1)C(=O)NC(CCCCN)C(=O)NNC(=O)c1ccncc1 (stereo not drawn) [Substrate L4, DBDY-(Lys-INH)2] | 44.9

Challenge: Look up degree of hydrolysis by Papain for this compound: CC(C)(C)OC(=O)NC(Cc1ccccc1)C(=O)NCC(=O)NNC(=O)c1ccncc1 (stereo not drawn) [Substrate G2, Boc-Phe-Gly-INH]
Response given: 51.0

Sourced from patent US20150293106A1
